# Test system: Capan-1 (pancreatic adenocarcinoma) cells
# measurement_notes: Cytostatic activity, Capan-1
# Type: cell-based
# reported_conditions: concentration causing 50% decrease in cell proliferation
readout_type: IC50 (µM)

Worked set:
Which IC50 is listed for COC(=O)[C@H]1C[C@H](Cn2cc(I)c(=O)[nH]c2=O)N(C)O1 (relative stereo) [trans-14f] ?
41.4

Try this compound too: COC(=O)[C@@H]1C[C@H](Cn2cc(I)c(=O)[nH]c2=O)N(C)O1 (relative stereo) [cis-14f]
42

Try this compound too: COC(=O)[C@@H]1C[C@H](Cn2cc(Cl)c(=O)[nH]c2=O)N(C)O1 (relative stereo) [cis-14e]
51.2

A: CN1C(=O)[C@@H](O)C[C@@H]1Cn1cc(Cl)c(=O)[nH]c1=O (relative stereo) [trans-15e]
B: COC(=O)[C@@H]1C[C@H](Cn2cc(Br)c(=O)[nH]c2=O)N(C)O1 (relative stereo) [cis-14d]
C: COC(=O)[C@H]1C[C@H](Cn2cc(Cl)c(=O)[nH]c2=O)N(C)O1 (relative stereo) [trans-14e]
Hey, quick one: sort these by IC50, largest value first please. Answer by listing the labels in the requested order.
B, C, A

a: CN1C(=O)[C@H](O)C[C@@H]1Cn1cnc2c(=O)n(C)c(=O)n(C)c21 (relative stereo) [cis-15h]
b: COC(=O)[C@H]1C[C@H](CN2CCC(=O)NC2=O)N(C)O1 (relative stereo) [trans-14g]
Lower IC50: a or b ? Refer to your chosen entry by its label in the reply.
a
